target.system: Nuclear receptor subfamily 1 group I member 3 (Homo sapiens) (UniProt Q14994)
Sequence (Q14994 whole entry, looked up): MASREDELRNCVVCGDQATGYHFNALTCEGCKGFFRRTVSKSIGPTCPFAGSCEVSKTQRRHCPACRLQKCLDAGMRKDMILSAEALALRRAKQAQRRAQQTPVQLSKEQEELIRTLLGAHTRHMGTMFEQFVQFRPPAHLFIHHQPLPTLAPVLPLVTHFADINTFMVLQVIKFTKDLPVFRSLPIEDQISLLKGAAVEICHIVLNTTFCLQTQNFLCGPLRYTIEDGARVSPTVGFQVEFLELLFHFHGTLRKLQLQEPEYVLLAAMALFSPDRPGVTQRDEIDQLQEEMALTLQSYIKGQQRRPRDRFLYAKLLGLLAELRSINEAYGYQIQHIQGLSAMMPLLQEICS
protocol.notes: qHTS for Constitutive Androstane Receptor (CAR) Agonist screened against the NCATS CANVASS Library (AID 1347373);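 further: every well also contained 1.5 µM PK11195 alongside the test compound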
condition: HepG2-hCAR-CYP2B6 luciferase reporter, ONE-Glo luminescence; series mostly up to 46.1 µM
Records with an inconclusive call do not appear. The source made the active and inactive calls. The call rests on the fitted dose curve; in most records, active means well fitted activation curve with a large enough effect; inconclusive means small, poorly fitted or top-dose-only effect; inactive means no such curve, though single readings can be large or run the other way.
Bench note: report the call from T (active), F (inactive)

{"columns": ["compound", "assigned.label"],
 "data": [
  ["COc1cc2c(cc1OC)[C@@H](c1ccc3c(c1)OCO3)C(C)[C@@H](C)C2=O (stereo partly drawn)", "T"],
  ["COc1c(O)cc2c(c1O)C(=O)c1c(coc1C)C2=O", "F"],
  ["C/C=C(/C)c1c(Cl)c(OC)c(C)c2c1Oc1c(Cl)c(O)c(Cl)c(C)c1C(=O)O2", "F"]
]}

Continue with the compound presented below.
Input: Can you look up the reported call for C=C(C)C(=O)O[C@H]1C[C@@]2(C)OC(=CC2=O)/C(C)=C\[C@H]2OC(=O)C(=C)[C@H]12 for me?
Output: F
